- SUBJECT_OF_TEST: Human M3 receptor (Homo sapiens)
- Construct: purchased Perkin Elmer
- METHOD_SUMMARY: M3 Receptor Radioligand Binding Assay
- APPLIED_CONDITIONS: human M3 receptor membranes, [3H]-N-methyl scopolamine; read-out: M3 binding affinity (Ki class)
- Description: Biological Characterization M3 Receptor Radioligand Binding Assay The assay was carried out in 96-well polypropylene plates in a volume of 250 ul. […] The final assay concentration of DMSO was 0.5% (v/v). The plates were sealed and incubated for 2 h at room temperature on an orbital shaker (slow speed). […] The plates were dried before addition of 50 μl of microscint-0, sealed then read in a Trilux Microbeta scintillation counter.

COMPOUND: O=C(NCc1ccc(C(=O)N2CC(C(=O)O[C@H]3CN4CCC3CC4)(c3ccccc3)C2)cc1)c1ccc(CNC[C@H](O)c2ccc(O)c3[nH]c(=O)ccc23)cc1 [Compound 17A]
Ki: < 1 nM

COMPOUND: O=C(Cc1ccc(CC(=O)N2CC(C(=O)O[C@H]3CN4CCC3CC4)(c3ccccc3)C2)cc1)N(CCCNC[C@H](O)c1ccc(O)c2[nH]c(=O)ccc12)Cc1ccccc1 [Compound 14A]
Ki: < 1 nM

COMPOUND: O=C(CCc1ccc(C(=O)N(CCCNC[C@H](O)c2ccc(O)c3[nH]c(=O)ccc23)Cc2ccccc2)cc1)N1CCC(C(=O)O[C@H]2CN3CCC2CC3)(c2ccccc2)CC1 [Compound 54]
Ki: 1 to 10 nM

COMPOUND: O=C(Cc1ccc(CC(=O)N(CCCNC[C@H](O)c2ccc(O)c3[nH]c(=O)ccc23)Cc2cccc(Oc3ccc(Cl)c(Cl)c3)c2)cc1)N1CCC(C(=O)O[C@H]2CN3CCC2CC3)(c2ccccc2)CC1 [Compound 40]
Ki: < 1 nM

COMPOUND: CN(CCCNC[C@H](O)c1ccc(O)c2[nH]c(=O)ccc12)C(=O)c1ccc(CCC(=O)N2CCC(C(=O)O[C@H]3CN4CCC3CC4)(c3ccccc3)CC2)cc1 [Compound 53]
Ki: 1 to 10 nM

* * *

pKi values for the compounds below.
- SUBJECT_OF_TEST: Human β2 adrenoceptor (Homo sapiens)
- Construct: purchased Perkin Elmer
- Sequence (P07550 whole entry): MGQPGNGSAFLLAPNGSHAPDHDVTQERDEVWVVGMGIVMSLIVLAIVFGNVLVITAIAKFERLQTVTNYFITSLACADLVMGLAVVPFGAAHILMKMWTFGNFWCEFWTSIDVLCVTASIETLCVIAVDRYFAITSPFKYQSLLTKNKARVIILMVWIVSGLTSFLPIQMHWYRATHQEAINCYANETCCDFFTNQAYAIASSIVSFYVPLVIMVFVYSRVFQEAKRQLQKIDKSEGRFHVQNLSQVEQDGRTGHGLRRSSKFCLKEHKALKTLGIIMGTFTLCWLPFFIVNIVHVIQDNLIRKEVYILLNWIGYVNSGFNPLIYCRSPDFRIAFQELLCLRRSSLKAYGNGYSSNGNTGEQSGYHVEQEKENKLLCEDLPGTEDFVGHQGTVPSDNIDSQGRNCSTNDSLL
- METHOD_SUMMARY: β2 Adrenoceptor Radioligand Binding Assay
pKi: −log10 of the molar value.

COMPOUND: O=C(c1ccc(CN(Cc2ccc(CNC[C@H](O)c3ccc(O)c4[nH]c(=O)ccc34)cc2)C(=O)c2ccccc2)cc1)N1CCC(C(=O)O[C@H]2CN3CCC2CC3)(c2ccccc2)CC1
pKi: < 8.00
--
COMPOUND: O=C(c1ccc(CN(Cc2ccc(CNC[C@H](O)c3ccc(O)c4[nH]c(=O)ccc34)cc2)S(=O)(=O)c2ccccc2)cc1)N1CCC(C(=O)O[C@H]2CN3CCC2CC3)(c2ccccc2)CC1
pKi: < 8.00

* * *

- SUBJECT_OF_TEST: Human M3 receptor (Homo sapiens, UniProt P20309)
- Construct: purchased Perkin Elmer
- Sequence (P20309 whole entry): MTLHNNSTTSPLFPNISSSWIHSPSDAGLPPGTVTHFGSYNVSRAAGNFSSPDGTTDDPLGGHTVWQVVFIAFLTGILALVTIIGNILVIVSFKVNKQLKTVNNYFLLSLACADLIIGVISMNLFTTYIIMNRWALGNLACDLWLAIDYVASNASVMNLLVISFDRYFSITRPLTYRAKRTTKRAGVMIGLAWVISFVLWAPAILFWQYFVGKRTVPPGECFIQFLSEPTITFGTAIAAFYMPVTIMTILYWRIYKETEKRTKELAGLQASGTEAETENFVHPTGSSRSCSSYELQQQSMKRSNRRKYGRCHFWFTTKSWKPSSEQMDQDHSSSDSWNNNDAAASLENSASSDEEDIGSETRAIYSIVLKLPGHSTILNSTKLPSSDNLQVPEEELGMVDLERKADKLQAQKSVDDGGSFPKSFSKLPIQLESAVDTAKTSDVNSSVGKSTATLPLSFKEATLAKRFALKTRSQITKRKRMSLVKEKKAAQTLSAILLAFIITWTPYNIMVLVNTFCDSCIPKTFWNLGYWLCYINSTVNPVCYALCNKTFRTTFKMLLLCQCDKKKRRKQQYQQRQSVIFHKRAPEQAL
- METHOD_SUMMARY: M3 Receptor Radioligand Binding Assay
- APPLIED_CONDITIONS: human M3 receptor membranes, [3H]-N-methyl scopolamine; read-out: M3 binding affinity (Ki class)
pKi: −log10 of the molar value.
Documented pKi across a set of compounds

COMPOUND: O=C(Cc1ccc(OCCCCCNC[C@H](O)c2ccc(O)c3[nH]c(=O)ccc23)cc1)N1CC(C(=O)O[C@H]2CN3CCC2CC3)(c2ccccc2)C1 [Compound 6A]
SUBJECT_OF_TEST: Human M3 receptor (Homo sapiens, UniProt P20309)
pKi: 8.00 to 9.00
//
COMPOUND: Cc1cc(/C=C/C(=O)N2CCC(C(=O)O[C@H]3CN4CCC3CC4)(c3ccccc3)CC2)ccc1OCCCCCNC[C@H](O)c1ccc(O)c2[nH]c(=O)ccc12 [Compound 18]
SUBJECT_OF_TEST: Human M3 receptor (Homo sapiens, UniProt P20309)
pKi: > 9.00
//
COMPOUND: COC(=O)N(Cc1ccc(CNC[C@H](O)c2ccc(O)c3[nH]c(=O)ccc23)cc1)Cc1ccc(C(=O)N2CCC(C(=O)O[C@H]3CN4CCC3CC4)(c3ccccc3)CC2)cc1 [Compound 62]
SUBJECT_OF_TEST: Human M3 receptor (Homo sapiens, UniProt P20309)
pKi: > 9.00
//
COMPOUND: O=C(NCc1ccc(CNC[C@H](O)c2ccc(O)c3[nH]c(=O)ccc23)cc1)c1ccc(C(=O)N2CCC(C(=O)O[C@H]3CN4CCC3CC4)(c3ccccc3)CC2)cc1 [Compound 23]
SUBJECT_OF_TEST: Human M3 receptor (Homo sapiens, UniProt P20309)
pKi: > 9.00
//
COMPOUND: O=C(c1ccc(OCc2ccc(CCNC[C@H](O)c3ccc(O)c4[nH]c(=O)ccc34)cc2)cc1)N1CCC(C(=O)O[C@H]2CN3CCC2CC3)(c2ccccc2)CC1 [Compound 26]
SUBJECT_OF_TEST: Human M3 receptor (Homo sapiens, UniProt P20309)
pKi: > 9.00
//
COMPOUND: O=C(c1ccc(CN(Cc2ccc(CNC[C@H](O)c3ccc(O)c4[nH]c(=O)ccc34)cc2)C(=O)C2CC2)cc1)N1CCC(C(=O)O[C@H]2CN3CCC2CC3)(c2ccccc2)CC1 [Compound 60]
SUBJECT_OF_TEST: Human M3 receptor (Homo sapiens, UniProt P20309)
pKi: > 9.00
//
COMPOUND: O=C(c1ccc(OCCCCCNC[C@H](O)c2ccc(O)c3[nH]c(=O)ccc23)cc1)N1CC(C(=O)O[C@H]2CN3CCC2CC3)(c2ccccc2)C1 [Compound 1A]
SUBJECT_OF_TEST: Human M3 receptor (Homo sapiens, UniProt P20309)
pKi: 8.00 to 9.00
//
COMPOUND: CS(=O)(=O)N(Cc1ccc(CNC[C@H](O)c2ccc(O)c3[nH]c(=O)ccc23)cc1)Cc1ccc(C(=O)N2CCC(C(=O)O[C@H]3CN4CCC3CC4)(c3ccccc3)CC2)cc1 [Compound 58]
SUBJECT_OF_TEST: Human M3 receptor (Homo sapiens, UniProt P20309)
pKi: 8.00 to 9.00
//
COMPOUND: O=C(NCCC(=O)N1CCC(C(=O)O[C@H]2CN3CCC2CC3)(c2ccccc2)CC1)c1ccc(CNC[C@H](O)c2ccc(O)c3[nH]c(=O)ccc23)cc1 [Compound 31]
SUBJECT_OF_TEST: Human M3 receptor (Homo sapiens, UniProt P20309)
pKi: 8.00 to 9.00
//
COMPOUND: O=C(NCCCCNC[C@H](O)c1ccc(O)c2[nH]c(=O)ccc12)c1ccc(C(=O)N2CC(C(=O)O[C@H]3CN4CCC3CC4)(c3ccccc3)C2)s1 [Compound 11A]
SUBJECT_OF_TEST: Human M3 receptor (Homo sapiens, UniProt P20309)
pKi: 8.00 to 9.00
//
COMPOUND: CCN(CCCNC[C@H](O)c1ccc(O)c2[nH]c(=O)ccc12)C(=O)c1ccc(C(=O)N2CCC(C(=O)O[C@H]3CN4CCC3CC4)(c3ccccc3)CC2)s1 [Compound 29]
SUBJECT_OF_TEST: Human M3 receptor (Homo sapiens, UniProt P20309)
pKi: 8.00 to 9.00
//
COMPOUND: O=C(Cc1ccc(OCCCCCNC[C@H](O)c2ccc(O)c3[nH]c(=O)ccc23)c(F)c1)N1CCC(C(=O)O[C@H]2CN3CCC2CC3)(c2ccccc2)CC1 [Compound 13]
SUBJECT_OF_TEST: Human M3 receptor (Homo sapiens, UniProt P20309)
pKi: > 9.00
//
COMPOUND: O=C(c1ccc(OCc2cccc(OCCCCNC[C@H](O)c3ccc(O)c4[nH]c(=O)ccc34)c2)cc1)N1CCC(C(=O)O[C@H]2CN3CCC2CC3)(c2ccccc2)CC1 [Compound 22]
SUBJECT_OF_TEST: Human M3 receptor (Homo sapiens, UniProt P20309)
pKi: 8.00 to 9.00
//
COMPOUND: O=C(c1ccc(OCCCCCNC[C@H](O)c2ccc(O)c3[nH]c(=O)ccc23)c(-c2ccsc2)c1)N1CCC(C(=O)O[C@H]2CN3CCC2CC3)(c2ccccc2)CC1 [Compound 6]
SUBJECT_OF_TEST: Human M3 receptor (Homo sapiens, UniProt P20309)
pKi: < 8.00
//
COMPOUND: CCN(CCCNC[C@H](O)c1ccc(O)c2[nH]c(=O)ccc12)C(=O)c1ccc(C(=O)N2CCC(C(=O)O[C@H]3CN4CCC3CC4)(c3ccccc3)CC2)cc1 [Compound 25]
SUBJECT_OF_TEST: Human M3 receptor (Homo sapiens, UniProt P20309)
pKi: 8.00 to 9.00
//
COMPOUND: O=C(CCc1ccc(OCCCCNC[C@H](O)c2ccc(O)c3[nH]c(=O)ccc23)cc1)N1CCC(C(=O)O[C@H]2CN3CCC2CC3)(c2ccccc2)CC1 [Compound 32]
SUBJECT_OF_TEST: Human M3 receptor (Homo sapiens, UniProt P20309)
pKi: > 9.00
//
COMPOUND: O=C(c1cc(Cl)c(OCCCCCNC[C@H](O)c2ccc(O)c3[nH]c(=O)ccc23)c(Cl)c1)N1CCC(C(=O)O[C@H]2CN3CCC2CC3)(c2ccccc2)CC1 [Compound 5]
SUBJECT_OF_TEST: Human M3 receptor (Homo sapiens, UniProt P20309)
pKi: 8.00 to 9.00
//
COMPOUND: O=C(Cc1ccc(OCCCCCNC[C@H](O)c2ccc(O)c3[nH]c(=O)ccc23)c(-c2ccccc2)c1)N1CCC(C(=O)O[C@H]2CN3CCC2CC3)(c2ccccc2)CC1 [Compound 15]
SUBJECT_OF_TEST: Human M3 receptor (Homo sapiens, UniProt P20309)
pKi: < 8.00
//
COMPOUND: O=C(NCCCCNC[C@H](O)c1ccc(O)c2[nH]c(=O)ccc12)c1ccc(C(=O)N2CC(C(=O)O[C@H]3CN4CCC3CC4)(c3ccccc3)C2)cc1 [Compound 10A]
SUBJECT_OF_TEST: Human M3 receptor (Homo sapiens, UniProt P20309)
pKi: 8.00 to 9.00
//
COMPOUND: O=C(c1ccc(COCc2ccc(CNC[C@H](O)c3ccc(O)c4[nH]c(=O)ccc34)cc2)cc1)N1CCC(C(=O)O[C@H]2CN3CCC2CC3)(c2ccccc2)CC1 [Compound 64]
SUBJECT_OF_TEST: Human M3 receptor (Homo sapiens, UniProt P20309)
pKi: > 9.00
//
COMPOUND: Cc1cccc(CN(CCCNC[C@H](O)c2ccc(O)c3[nH]c(=O)ccc23)C(=O)Cc2ccc(CC(=O)N3CCC(C(=O)O[C@H]4CN5CCC4CC5)(c4ccccc4)CC3)cc2)c1 [Compound 35]
SUBJECT_OF_TEST: Human M3 receptor (Homo sapiens, UniProt P20309)
pKi: > 9.00
